Data origin: the supplement of paper PMC12042874

Assay Procedure: amyloid nucleation score (Sup35N fusion, yeast selection) (log enrichment); library NNK1; higher = more nucleation; inactive = no reads after selection;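 also: zero at mode of non-aggregating sequences after 7 days selection at 30°C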
Measured amyloid nucleation score of individual entries
Lab note: record the figure alone, no unit after it.

Here's what some known entries look like.
WYGVFALMIGRSIFD; -0.027
RYWSRQRLTDVYVFRLDMSR; -2.07
DMNILVLLMGDVVRLATTEW; 2.68
MNFCYLCTTWWSYYFQ; -0.38
TVFFDYDDIYLVNSVFRSAV; -0.113

Problem: Which amyloid nucleation score is reported for this sequence? NRSLKCICRRSVGRRSQNLR
Solution: 0.57

Problem: Can you handle SPVLIDVRGM next?
Solution: -0.413

Problem: Can you handle FEHVSMWIVCFVKNLKYRIR next?
Solution: -0.86

Problem: Can you handle ADLSISRWCLCGRNALGLFF next?
Solution: 5.12

Problem: Can you handle VWYWLSNNLDVW next?
Solution: 0.809

Problem: Can you handle WVWDCFHDCVPYMGRTGLVA next?
Solution: -0.56

Problem: Can you handle DEDHFYTSRML next?
Solution: 0.639

Problem: Can you handle VYLVMSVCGTRNGYKHSSQL next?
Solution: 0.265

Problem: Can you handle LEMDRICMMLSDSRFKLTLV next?
Solution: -0.025

Problem: Can you handle LNTCLFISDTAVFIMASYMV next?
Solution: 3.06

---

Measured amyloid nucleation score of individual entries
Assay Procedure: amyloid nucleation score (Sup35N fusion, yeast selection) (log enrichment); library NNK1; higher = more nucleation; inactive = no reads after selection

Here's what some known entries look like.
MHTKRTTDNKYGSY; -0.208
VDRQFTDEFKVFTEGTKVDE; -0.5

Problem: Which amyloid nucleation score is reported for this substance? ADIPCQNCVSYVRYFGLNVI
Solution: -0.094

Problem: Can you handle CRLESGHYLCSHGRVSGLR next?
Solution: 0.796

---

Assay Procedure: amyloid nucleation score (Sup35N fusion, yeast selection) (log enrichment); library NNK2; higher = more nucleation; inactive = no reads after selection
Measured amyloid nucleation score of individual entries
Lab note: record the figure alone, no unit after it.

SRNLTVNK; -0.072
SNVYYRVC; 4.72
SSATFYT; 1.43
LCFYPVTTCKPIFRPLYVLP; 0.562
LGGSSENYGVDCNYYPEMWG; -1.24

Problem: Which amyloid nucleation score is reported for this substance? IPAMETSTLAGYGPYSHNFG
Solution: -0.629

Problem: Can you handle RIVIFFFTCIYPIWIRNTWP next?
Solution: -1.18

Problem: Can you handle PSITPLACHHTRCNW next?
Solution: -0.881

Problem: Can you handle KGCVDHVFIYGIN next?
Solution: -1.44

Problem: Can you handle VLNVNDFPNYGRRSCSTNSF next?
Solution: 3.18

Problem: Can you handle WHLCFISHTLRGMRTLWSIR next?
Solution: -0.829

Problem: Can you handle LAFYSFIRYTRLSIEMVAIS next?
Solution: -0.741

Problem: Can you handle LRLFYHVR next?
Solution: -0.641

Problem: Can you handle LRYLGWLACDYKTVGRSVTR next?
Solution: 0.978

Problem: Can you handle LGHHVQYLRFVWLWQND next?
Solution: 1.17

Problem: Can you handle ISKLTTRLLIYERNFPNWGH next?
Solution: 3.19

---

Assay Procedure: amyloid nucleation score (Sup35N fusion, yeast selection) (log enrichment); library NNK1; higher = more nucleation; inactive = no reads after selection
Tag: True if measured amyloid nucleation score is not below 0.2, False if it is.

YTINPRKIRGTPPPIPCRVQ; False
RSYSTCFPLIVLSK; True
EGDYNGGCCQGLLNCQ; False
APSSKF; False
SVARFNVWVVLSSRNVTCQS; True

Attention now shifts to the item below.
Problem: I'd appreciate it if you could say whether TKWAVDY has amyloid nucleation score at least equal to 0.2.
Solution: True

---

Assay Procedure: amyloid nucleation score (Sup35N fusion, yeast selection) (log enrichment); library NNK1; higher = more nucleation; inactive = no reads after selection
Tag: satisfied if measured amyloid nucleation score is not below 0.2, not satisfied if it is.

WGLLLE; satisfied
AFDGVS; not satisfied
GHWDTVGIR; not satisfied
PGKICSNDQVNVSAY; not satisfied
IWKSSRGPLIGLVVLDIARR; satisfied
DMQSEGDRGDHRGSRDCRS; satisfied
AHTSYYTMSTSRTADGVKIS; not satisfied
RMRRLCVSEGRDLSGECCYM; satisfied

Problem: I'd appreciate it if you could say whether FGSRVVGRCVETSHSILFVL has amyloid nucleation score at least equal to 0.2.
Solution: satisfied

Problem: Can you handle SVFELLCSPQSVNRTFNTPY next?
Solution: satisfied

Problem: Can you handle AVSIWSPRIGVCETFQLDVV next?
Solution: not satisfied

Problem: Can you handle HPQVTWGSRLAVNFCAWCYG next?
Solution: satisfied

Problem: Can you handle CPLAIVDTVHCRNSSSFSQ next?
Solution: not satisfied

Problem: Can you handle RMVLPVSNLFCAFPGTGGGS next?
Solution: not satisfied

Problem: Can you handle FSLFDGMVLVNS next?
Solution: not satisfied

Problem: Can you handle VAATDWVGNHKS next?
Solution: satisfied

Problem: Can you handle NIASGFGFPYRGVLSC next?
Solution: not satisfied

Problem: Can you handle LKNGSDSILDARVYLGG next?
Solution: not satisfied

---

Assay Procedure: amyloid nucleation score (Sup35N fusion, yeast selection) (log enrichment); library NNK2; higher = more nucleation; inactive = no reads after selection
Measured Property: amyloid nucleation score

Here's what some known entries look like.
GFRFLLKLLFGFKKV; inactive
YQGSLGSDMAISKLFDSDYE; -0.656
HVFLINLGLNCGQRYRYRSL; 6.04
SARAICMAVLESSESDHNGV; -0.299
MCVYCVDYWGACRLEILALW; -0.423

Problem: Which amyloid nucleation score is reported for this substance? GMNQCCPD
Solution: -0.455

Problem: Can you handle SCRVRFNRSCAPGNSQIGMS next?
Solution: 8.67

Problem: Can you handle SLGEGISFIVWCDGILLLGC next?
Solution: -1.15

---

Assay Procedure: amyloid nucleation score (Sup35N fusion, yeast selection) (log enrichment); library NNK3; higher = more nucleation; inactive = no reads after selection
Measured Property: amyloid nucleation score

Here's what some known entries look like.
IYNVFDDEDMICTSLVVSRS; inactive
GLLVTTPMLKLNYFNVLDLG; 0.99
IIASDLSLSVVNVFN; 0.341
LAVLIVDKPYADETHRLLVR; inactive
MLAVRMVDTPSSCQRIKPDN; inactive

Problem: Which amyloid nucleation score is reported for this sequence? LNCNSESMLPLYNMVWRNRN
Solution: inactive

Problem: Can you handle INQGLTWMLDRPSKFAFVAV next?
Solution: inactive

Problem: Can you handle NNGRYLMGRRKESDLLLGQW next?
Solution: inactive

Problem: Can you handle VLRRLGWICL next?
Solution: inactive

Problem: Can you handle SSSMCYRCDLSMFLGSGRSG next?
Solution: inactive

---

Assay Procedure: amyloid nucleation score (Sup35N fusion, yeast selection) (log enrichment); library NNK1; higher = more nucleation; inactive = no reads after selection
Measured Property: amyloid nucleation score
Lab note: record the figure alone, no unit after it.

Here's what some known entries look like.
CFLYNSFYILDISELLQGST; 4.81
YVLRPFGLLKWSNSVGPHER; -0.106
WCRRWFLLYWVCAETKFGSG; -0.367
CVDRNG; -0.362
FDYPDGDVVVNKFDSDVCYR; 0.616

Problem: Which amyloid nucleation score is reported for this substance? ITFLRSTIPSVRTRQRLHEL
Solution: 0.783

Problem: Can you handle GPFSDVAGQKVRCGRLVATR next?
Solution: -0.212

Problem: Can you handle DWNVQGQWFHQC next?
Solution: 0.677

Problem: Can you handle VSGLRRSRSWWAFDVQSLLR next?
Solution: 0.544

Problem: Can you handle TDRMGIQCGRVSLRSRYIRC next?
Solution: -0.198

Problem: Can you handle SVSYVELLGAFIKGLGIIYF next?
Solution: -0.999

Problem: Can you handle MFFSCGVLTILNWIKLKMAR next?
Solution: -0.839

Problem: Can you handle HPLVGQELKDWNNELYVHVL next?
Solution: 0.534

Problem: Can you handle EMYKSVP next?
Solution: 0.109

Problem: Can you handle LPDCINNVQNGYSKLSEGLS next?
Solution: 0.792

Problem: Can you handle SNSMLISYSCEFTWGVGKVL next?
Solution: 0.242

Problem: Can you handle ITWFVYGPLGWMWGFLRPTA next?
Solution: 0.019
